# Tested on: Mus musculus
# measurementProtocol: Tmax in mouse plasma assessed as galiellalactone level at 10 mg/kg, po by LC-MS/MS analysis
# Assay type: ADME, organism-based
# cond: in vivo
quantityMeasured: Tmax (min)

Example entries begin here.
COC(=O)[C@H](CS[C@H]1C2C(=O)O[C@@H]3CC[C@H](C[C@@H]1C)[C@]23O)NC(=O)[C@@H](N)C(C)C (some centres undefined) | 30
CCOC(=O)[C@H](CS[C@H]1C2C(=O)O[C@@H]3CC[C@H](C[C@@H]1C)[C@]23O)NC(C)=O (some centres undefined) | 30
COC(=O)[C@H](CS[C@H]1C2C(=O)O[C@@H]3CC[C@H](C[C@@H]1C)[C@]23O)NC(=O)C(C)C (some centres undefined) | 30
COC(=O)[C@H](CS[C@H]1C2C(=O)O[C@@H]3CC[C@H](C[C@@H]1C)[C@]23O)NC(C)=O (some centres undefined) | 15
COC(=O)[C@H](CS[C@H]1C2C(=O)O[C@@H]3CC[C@H](C[C@@H]1C)[C@]23O)NC(=O)OC(C)(C)C (some centres undefined) | 15

1. COC(=O)[C@H](CS[C@H]1C2C(=O)O[C@@H]3CC[C@H](C[C@@H]1C)[C@]23O)NC(=O)c1ccccc1F (some centres undefined)
2. COC(=O)[C@@H](N)CS[C@H]1C2C(=O)O[C@@H]3CC[C@H](C[C@@H]1C)[C@]23O (some centres undefined)
Which record shows the lower Tmax: the first, 1 , or the second, 2 ? Your answer should be the label attached to the chosen record.
1

* * *

# Tested on: Mus musculus
# measurementProtocol: Cmax in mouse plasma assessed as galiellalactone level at 10 mg/kg, po by LC-MS/MS analysis
# Format: ADME, organism-based
# Parameters: dose 10 mg/kg, route oral
# cond: in vivo
quantityMeasured: Cmax (ng/mL)

COC(=O)[C@H](CS[C@H]1C2C(=O)O[C@@H]3CC[C@H](C[C@@H]1C)[C@]23O)NC(=O)c1ccccc1F (some centres undefined) | 57

A. COC(=O)[C@H](CS[C@H]1C2C(=O)O[C@@H]3CC[C@H](C[C@@H]1C)[C@]23O)NC(=O)[C@@H](N)C(C)C (some centres undefined)
B. CCOC(=O)[C@H](CS[C@H]1C2C(=O)O[C@@H]3CC[C@H](C[C@@H]1C)[C@]23O)NC(C)=O (some centres undefined)
C. COC(=O)[C@H](CS[C@H]1C2C(=O)O[C@@H]3CC[C@H](C[C@@H]1C)[C@]23O)NC(=O)OC(C)(C)C (some centres undefined)
D. C[C@H]1C[C@H]2CC[C@H]3OC(=O)C([C@@H]1Sc1ccccc1)[C@@]23O (some centres undefined)
Descending sort on Cmax required. Order the labels as requested and list them.
A, D, B, C

I. COC(=O)[C@@H](N)CS[C@H]1C2C(=O)O[C@@H]3CC[C@H](C[C@@H]1C)[C@]23O (some centres undefined)
II. COC(=O)[C@H](CS[C@H]1C2C(=O)O[C@@H]3CC[C@H](C[C@@H]1C)[C@]23O)NC(=O)C(C)C (some centres undefined)
Lab note: check whether I or II shows the higher recorded Cmax. Write the label of whichever entry you select.
I
(I: 788 ng/mL, II: 303 ng/mL)

* * *

# System: Mus musculus
# measurementProtocol: AUC (0 to t) in mouse plasma assessed as galiellalactone level at 10 mg/kg, po by LC-MS/MS analysis
# Type: ADME, organism-based
# cond: in vivo
quantityMeasured: AUCt (µg/mL/min)

CCOC(=O)[C@H](CS[C@H]1C2C(=O)O[C@@H]3CC[C@H](C[C@@H]1C)[C@]23O)NC(C)=O (some centres undefined) | 20

I. COC(=O)[C@H](CCS[C@H]1C2C(=O)O[C@@H]3CC[C@H](C[C@@H]1C)[C@]23O)NC(C)=O (some centres undefined)
II. COC(=O)[C@H](CS[C@H]1C2C(=O)O[C@@H]3CC[C@H](C[C@@H]1C)[C@]23O)NC(=O)C(C)C (some centres undefined)
III. COC(=O)[C@H](CS[C@H]1C2C(=O)O[C@@H]3CC[C@H](C[C@@H]1C)[C@]23O)NC(=O)c1ccccc1F (some centres undefined)
Hey, quick one: sort these by AUCt, largest value first please. Put the labels in the requested order and list them out.
I, II, III

* * *

# measurementProtocol: Cmax in mouse plasma at 1.25 mg/kg, iv by LC-MS/MS analysis
# Assay type: ADME, organism-based
# Design: dose 1.25 mg/kg, route intravenous
quantityMeasured: Cmax (ng/mL)
# unit: ng/mL | format: bare number

Given the compound `C[C@@H]1C=C2C(=O)O[C@@H]3CC[C@H](C1)[C@]23O` , write its reported Cmax.
2960

* * *

# measurementProtocol: Toxicity in CD1 mouse at 40 to 400 mg/kg, administered as single dose through oral gavage
# Type: organism-based
# cond: in vivo
quantityMeasured: MTD (mg/kg)
Lab book: enter the figure in mg/kg, no units written.

Give recorded MTD. COC(=O)[C@H](CS[C@H]1C2C(=O)O[C@@H]3CC[C@H](C[C@@H]1C)[C@]23O)NC(C)=O (stereo partly specified)
400

* * *

# measurementProtocol: Volume of distribution in mouse plasma at 1.25 mg/kg, iv by LC-MS/MS analysis
# Assay type: ADME, organism-based
quantityMeasured: Vd (L/kg)
Your answer should be a plain number; it is taken to be in L/kg.

Assign Vd to the following record: `C[C@@H]1C=C2C(=O)O[C@@H]3CC[C@H](C1)[C@]23O`
1.4

* * *

# Test system: Mus musculus
# measurementProtocol: Apparent half life in mouse plasma assessed as galiellalactone level at 10 mg/kg, po by LC-MS/MS analysis
# Assay type: ADME, organism-based
# cond: in vivo
quantityMeasured: t1/2(app) (h)

Some solved cases for reference:
COC(=O)[C@H](CS[C@H]1C2C(=O)O[C@@H]3CC[C@H](C[C@@H]1C)[C@]23O)NC(=O)C(C)C (stereo not given in full) | 4.23
C[C@H]1C[C@H]2CC[C@H]3OC(=O)C([C@@H]1Sc1ccccc1)[C@@]23O (stereo not given in full) | 3.17
COC(=O)[C@H](CS[C@H]1C2C(=O)O[C@@H]3CC[C@H](C[C@@H]1C)[C@]23O)NC(C)=O (stereo not given in full) | 1.53

P. COC(=O)[C@H](CS[C@H]1C2C(=O)O[C@@H]3CC[C@H](C[C@@H]1C)[C@]23O)NC(=O)c1ccccc1F (stereo not given in full)
Q. CCOC(=O)[C@H](CS[C@H]1C2C(=O)O[C@@H]3CC[C@H](C[C@@H]1C)[C@]23O)NC(C)=O (stereo not given in full)
Field: lower recorded t1/2(app) (choose P or Q ) Choose, then provide that item's label.
Q
(Q: 1.08 h, P: 3.15 h)

* * *

# measurementProtocol: Apparent permeability from apical to basolateral side in human Caco2 cells at 20 uM measured after 120 mins by UPLC-MS/MS analysis
# Format: ADME, cell-based
# cond: Caco-2
quantityMeasured: Papp A→B at 2 h, 20 µM (×10⁻⁶ cm/s)
Give just the number in ×10⁻⁶ cm/s; leave the unit off.

Please indicate Papp A→B at 2 h, 20 µM recorded for `C[C@@H]1C=C2C(=O)O[C@@H]3CC[C@H](C1)[C@]23O`
65.9

* * *

# measurementProtocol: Apparent half life in mouse plasma at 10 mg/kg, po by LC-MS/MS analysis
# Type: ADME, organism-based
# cond: read-out: t1/2(app)
quantityMeasured: half-life (h)
Quick note: give the figure in h, leave out the unit.

Report half-life, nothing else, for this compound: `C[C@@H]1C=C2C(=O)O[C@@H]3CC[C@H](C1)[C@]23O`
1.48

* * *

In this section we review reported half-life at 10 µM values for a set of compounds.
# measurementProtocol: Chemical stability of the compound in phosphate buffer saline assessed as half life at 10 uM at pH 7.4 by LC-MS/MS analysis
# Format: physicochemical
# cond: phosphate buffered saline

C[C@H]1C[C@H]2CC[C@H]3OC(=O)C([C@@H]1SCCS(=O)(=O)O)[C@@]23O (stereo partly drawn) | > 2.5 h
C[C@@H]1C=C2C(=O)O[C@@H]3CC[C@H](C1)[C@]23O | > 9.8 h

Output half-life at 10 µM of COC(=O)[C@H](CS[C@H]1C2C(=O)O[C@@H]3CC[C@H](C[C@@H]1C)[C@]23O)NC(=O)OC(C)(C)C (stereo partly drawn)
> 2.5 h
